# ASSAY_NAME: Assay C: Human MST t1/2 (stability in human liver microsomes)
# Type: in vitro ADME
# TEST_CONDITIONS: human liver microsomes
For each record, check the reported half-life: if it is below 30 min write criterion met, else write criterion not met.

Answered examples (7):
> print(dat)
                            chemical.smiles       answer.label
1  CCN(C(=O)c1cc(Cl)cnc1-n1nccn1)[C@@H](C)COc1ccc(C(F)(F)F)cn1  criterion not met
2  CCN(C(=O)c1c(F)cncc1-n1cccn1)[C@@H](C)COc1ccc(C(F)(F)F)cn1      criterion met
3  CCN(C(=O)c1cc(OC)cnc1-n1nccn1)[C@@H](C)COc1ncc(C(F)(F)F)cc1F  criterion not met
4  CCN(C(=O)c1cnc(C)nc1-c1ccccc1)[C@@H](C)COc1cnc(C(F)(F)F)cn1  criterion not met
5  CCN(C(=O)c1ncccc1-c1ccn(C)n1)[C@@H](C)COc1ccc(C(F)(F)F)cn1  criterion not met
6  CCN(C(=O)c1nccc(C(F)(F)F)c1-c1ccn(C)n1)[C@@H](C)COc1ccc(C(F)(F)F)cn1      criterion met
7  CCN(C(=O)c1ccc(C)nc1-n1nccn1)[C@@H](C)COc1ccc(C(F)(F)F)cn1  criterion not met

Now look at this entry.
Would you kindly verify if half-life of CCN(C(=O)c1cnccc1-n1nccn1)[C@@H](C)COc1ccc(C(F)(F)F)cn1 is strictly less than 30 min? criterion met

----------
# ASSAY_NAME: Assay C: Human MST t1/2 (stability in human liver microsomes)
# Format: in vitro ADME
# TEST_CONDITIONS: human liver microsomes
Measured half-life values are reported for all entries that follow.

> print(dat)
                                   molecule    result
1  CCN(C(=O)c1nc(C)ccc1-n1nccn1)[C@@H](C)COc1cnc(C(F)(F)F)cn1 [Example 10]  > 2.17 h
2  CC[C@@H](CNc1ccc(C(F)(F)F)cn1)N(CC)C(=O)c1nc(C)ccc1-n1nccn1 [Ex 71 in WO2016/ 034882, reference compound]   0.075 h
3  CCN(C(=O)c1nc(C)ccc1-c1ncccn1)[C@@H](C)COc1cnc(C(F)(F)F)cn1 [Example 53]  > 2.17 h
4  CCN(C(=O)c1cc(C)cnc1-c1ccn(C)n1)[C@@H](C)COc1ccc(C(F)(F)F)cn1 [Example 27]   0.517 h

Give half-life for CCN(C(=O)c1ccc(C)nc1-n1nccn1)[C@@H](C)COc1ncc(C(F)(F)F)cc1F [Example 60] > 2.17 h

Give half-life for CCN(C(=O)c1ncccc1-c1ccccc1)[C@@H](C)COc1ncc(C(F)(F)F)cn1 [Example 15] 1.6 h

Give half-life for CCN(C(=O)c1cc(F)cnc1-c1ncccn1)[C@@H](C)COc1cnc(C(F)(F)F)cn1 [Example 45] > 2.17 h

----------
# EXPERIMENTAL_SYSTEM: human Orexin 1 receptor (Homo sapiens)
# Construct: stably expressing the full-length human Orexin 1 receptor; expressed in transfected cells; host or cells: CHO-K1 (CHO-K1/hOX1), co-expressing aequorin
# Sequence (O43613 1-425): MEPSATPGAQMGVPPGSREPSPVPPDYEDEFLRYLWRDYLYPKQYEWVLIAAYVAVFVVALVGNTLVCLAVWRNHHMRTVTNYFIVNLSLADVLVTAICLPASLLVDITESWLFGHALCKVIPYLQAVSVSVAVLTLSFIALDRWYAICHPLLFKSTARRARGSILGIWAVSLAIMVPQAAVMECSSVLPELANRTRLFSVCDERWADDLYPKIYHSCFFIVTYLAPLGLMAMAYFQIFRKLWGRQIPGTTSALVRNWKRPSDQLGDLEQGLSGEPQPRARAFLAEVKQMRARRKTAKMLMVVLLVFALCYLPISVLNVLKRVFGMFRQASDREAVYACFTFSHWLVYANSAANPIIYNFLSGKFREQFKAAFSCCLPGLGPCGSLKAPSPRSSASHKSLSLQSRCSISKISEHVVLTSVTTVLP
# ASSAY_NAME: Assay A: OX1R IP1 (in vitro OX1R potency)
# Type: cell-based
# TEST_CONDITIONS: Table 3; Orexin A concentration 0.5 nM
ASSAY_READOUT: Kb (nM)
Field: numeric (nM). Do not append units.

> print(dat)
                                   compound  numeric.readout
1  CCN(C(=O)c1ncccc1-c1ccccc1)[C@@H](C)COc1ncc(C(F)(F)F)cn1 [Example 15]              4.5

Give Kb for CCN(C(=O)c1ccncc1-n1cccn1)[C@@H](C)COc1ccc(C(F)(F)F)cn1 [Example 40] 13

Give Kb for CCN(C(=O)c1ccncc1-c1ccn(C)n1)[C@@H](C)COc1ccc(C(F)(F)F)cn1 [Example 29] 8.7
